Tested on: SNB-75 CNS
run-description: NCI-60 one-dose screen, 48 h (100 = growth as untreated, 0 = no growth, -100 = all killed)
condition-set: 10 µM unless noted
This is part of a sample that, as a whole, favours compounds with a hit. Of some 83,000 tested, about 20% had one in any assay.
# note: boundary value 80% maps to not fulfilled; growth below it maps to fulfilled

Exercise: Take the compound `CC(=O)c1c([Si](C)(C)C)c2cc(C#N)ccn2c1C(=O)c1ccc(Br)cc1` and say whether its growth is less than 80%.
Key: not fulfilled

Exercise: Take the compound `CCCC[n+]1ccc(SCC(=O)n2ccc3ccccc32)c2ccccc21` and say whether its growth is less than 80%.
Key: not fulfilled

Exercise: Take the compound CCCC/C(=C\c1ccc(O)c(O)c1)C(=O)NC(Cc1ccccc1)C(=O)C(=O)NCCc1ccc(OC)cc1 (centres undefined) and say whether its growth is less than 80%.
Key: not fulfilled

Exercise: Take the compound `CC1=C(C)C(=O)C(Nc2ccc3c(c2)OCCO3)=C(Br)C1=O` and say whether its growth is less than 80%.
Key: not fulfilled

Exercise: Take the compound `C#CCOc1cccc(/C(N)=N/C(N)=N/c2nc3ccccc3s2)c1` and say whether its growth is less than 80%.
Key: not fulfilled

Exercise: Take the compound `COc1ccc2[nH]cc(-c3nn4cc(-c5ccncc5)nc4s3)c2c1` and say whether its growth is less than 80%.
Key: fulfilled

Exercise: Take the compound `Cc1ccc2c(n1)C(=O)C(Cl)=C(Nc1ccc(C(C)C)cc1)C2=O` and say whether its growth is less than 80%.
Key: not fulfilled

Exercise: Take the compound `Oc1[nH]c2ccc(Cl)cc2c1N=Nc1nc(N=Nc2c(O)[nH]c3ccc(Cl)cc23)nc(N2CCOCC2)n1` and say whether its growth is less than 80%.
Key: fulfilled

Exercise: Take the compound `CC(=C(c1ccc(OCCCN(C)C)cc1)c1ccc(OCCCN(C)C)cc1)c1ccc(Cl)cc1` and say whether its growth is less than 80%.
Key: fulfilled

Exercise: Take the compound COc1ccc(/C=N\NC(=O)c2cnn(CC(O)c3ccccc3)c2N)cc1OCc1ccc(Cl)cc1 (centres undefined) and say whether its growth is less than 80%.
Key: fulfilled

Exercise: Take the compound `CC[C@H](CC[C@@H](C)[C@H]1CC[C@H]2[C@@H]3CC(=O)C4=CC(=O)/C(=C/c5ccc([N+](=O)[O-])cc5)C[C@]4(C)[C@H]3CC[C@]12C)C(C)C` and say whether its growth is less than 80%.
Key: not fulfilled

Exercise: Take the compound `CN1CCN(c2ccc(Nc3nc(NCCCNS(=O)(=O)c4cccc5ccccc45)c4sccc4n3)cc2)CC1` and say whether its growth is less than 80%.
Key: fulfilled

Exercise: Take the compound `C#C[C@]1(O)CC[C@H]2[C@@H]3CC=C4c5sc(N6CCN(C)CC6)nc5CC[C@]4(C)[C@H]3CC[C@@]21C` and say whether its growth is less than 80%.
Key: fulfilled

Exercise: Take the compound `COc1ccc(C(=O)c2c(N)c(C#N)cn2-c2ccc(Cl)cc2Cl)cc1` and say whether its growth is less than 80%.
Key: not fulfilled

Exercise: Take the compound `CSc1ccc(/C(=N/N=C(N)N)c2ccc(Cl)cc2)cc1` and say whether its growth is less than 80%.
Key: fulfilled

Exercise: Take the compound `COc1ccc(CC(C)=C(c2ccc(OCCN3CCCC3)cc2)c2ccc(OCCN3CCCC3)cc2)cc1` and say whether its growth is less than 80%.
Key: fulfilled

Exercise: Take the compound `COc1ccc(-c2c(C(N)=O)c(N)n(Cc3nc4ccccc4[nH]3)c(=O)c2C#N)c(OC)c1` and say whether its growth is less than 80%.
Key: not fulfilled
